Consider the following molecules and their measured Cmax readings.
- Assay summary: In vivo pharmacokinetic experiment, intravenous administration
- Setup conditions: mouse, 2 mg/kg, CD-1 female mice, 2 mpk, whole blood, read-out: Whole blood Cmax
I'd appreciate it if you included the unit after the number.

NS(=O)(=O)OC[C@H]1C[C@@H](Nc2ncncc2C(=O)c2cc3c(s2)CCC[C@]32NCCc3ccc(F)cc32)C[C@@H]1O [Compound 9] = 14300 ng/mL
NS(=O)(=O)OC[C@H]1C[C@@H](Nc2ncncc2C(=O)c2cc3c(s2)CCC[C@]32NCCc3ccc(Cl)cc32)C[C@@H]1O [Compound 6] = 15800 ng/mL

Here's the next entry for you.
stdin: Given NS(=O)(=O)OC[C@H]1C[C@@H](Nc2ncncc2C(=O)c2cc3c(s2)COC[C@]32NCCc3ccc(Cl)cc32)C[C@@H]1O [Compound 21] , respond with its Cmax.
stdout: 20200 ng/mL

* * *

- Target or system: SAE (Homo sapiens (Human), UniProt Q9UBT2)
- Sequence (Q9UBT2 whole entry): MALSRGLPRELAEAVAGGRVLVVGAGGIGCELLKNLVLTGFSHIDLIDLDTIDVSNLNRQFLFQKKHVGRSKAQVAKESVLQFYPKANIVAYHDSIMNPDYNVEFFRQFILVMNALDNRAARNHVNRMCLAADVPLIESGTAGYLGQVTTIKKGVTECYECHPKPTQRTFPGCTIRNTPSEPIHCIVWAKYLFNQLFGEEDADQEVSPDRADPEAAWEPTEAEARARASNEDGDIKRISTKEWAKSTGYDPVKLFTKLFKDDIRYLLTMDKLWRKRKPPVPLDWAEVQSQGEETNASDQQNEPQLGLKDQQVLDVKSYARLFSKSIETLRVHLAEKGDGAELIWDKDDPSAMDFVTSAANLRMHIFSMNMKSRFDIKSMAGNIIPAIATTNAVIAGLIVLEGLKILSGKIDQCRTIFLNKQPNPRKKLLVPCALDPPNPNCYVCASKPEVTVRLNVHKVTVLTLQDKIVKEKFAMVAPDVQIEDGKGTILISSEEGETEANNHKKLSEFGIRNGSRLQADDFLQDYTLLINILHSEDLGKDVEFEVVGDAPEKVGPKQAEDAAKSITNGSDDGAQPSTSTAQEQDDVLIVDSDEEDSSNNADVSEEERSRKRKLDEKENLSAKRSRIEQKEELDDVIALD
- Sequence (Q9UBE0 whole entry partner): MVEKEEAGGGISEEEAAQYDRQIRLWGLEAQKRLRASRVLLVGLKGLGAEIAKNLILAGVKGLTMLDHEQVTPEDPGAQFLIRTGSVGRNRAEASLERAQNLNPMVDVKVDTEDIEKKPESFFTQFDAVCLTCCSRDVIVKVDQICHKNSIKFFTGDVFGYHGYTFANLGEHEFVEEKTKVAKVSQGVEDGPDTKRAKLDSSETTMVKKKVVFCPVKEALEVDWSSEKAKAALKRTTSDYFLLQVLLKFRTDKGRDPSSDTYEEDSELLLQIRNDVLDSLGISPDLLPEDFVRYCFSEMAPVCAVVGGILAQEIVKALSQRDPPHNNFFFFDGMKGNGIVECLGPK
- Assay summary: In vitro inhibitory activity assay against SAE (SUMO-2/3 immunofluorescence in HCT116 cells)
- Format: cell-based
- Setup conditions: 6 h incubation, class symbols, read-out: SUMO IF IC50
pIC50: −log10 of the molar value.
As shown below, each of these molecules has a reported pIC50 value.

Solved cases below.
NS(=O)(=O)OC[C@H]1C[C@@H](Nc2ncncc2C(=O)c2cc3c(s2)C=C[C@]32OCCc3ccccc32)C[C@@H]1O [Compound 291] = 6.70 to 7.30
NS(=O)(=O)OC[C@H]1C[C@@H](Nc2ncncc2C(=O)c2cc3c(s2)CC[C@]32NC3(CC3)Cc3ccc(Cl)cc32)C[C@@H]1O [Compound 241] = 6.70 to 7.30
NS(=O)(=O)OC[C@H]1C[C@@H](Nc2ncncc2C(=O)c2cc3c(s2)CCC[C@]32NCCc3cc(F)c(Cl)cc32)C[C@@H]1O [Compound 207] = ≥ 7.30

stdin: Dear colleague, please send me the reported pIC50 for NS(=O)(=O)OC[C@H]1C[C@@H](Nc2ncncc2C(=O)c2cc3c(s2)CSC[C@@]32NCCc3ccccc32)C[C@@H]1O [Compound 86] when you can.
stdout: < 6.70

stdin: Return pIC50 (reported value) for this molecule: NS(=O)(=O)OC[C@H]1C[C@@H](Nc2ncncc2C(=O)c2nc3c(s2)CCCC32NCCc3ccc(Cl)cc32)C[C@@H]1O (stereo partly drawn) [Compound 121]
stdout: < 6.70

stdin: Give me measured pIC50, please, for this molecule: NS(=O)(=O)OC[C@H]1C[C@@H](Nc2ncncc2C(=O)c2cc3c(s2)CCC[C@]32NCCc3cc(F)c(Cl)c(F)c32)C[C@@H]1O [Compound 212]
stdout: ≥ 7.30

stdin: Note down pIC50 recorded for NS(=O)(=O)OC[C@H]1C[C@@H](Nc2ncncc2C(=O)c2cc3c(s2)C(=O)CC32NCCc3ccc(Cl)cc32)C[C@@H]1O (stereo partly drawn) [Compound 166]
stdout: 6.70 to 7.30

stdin: Return pIC50 for the following molecule: NS(=O)(=O)OC[C@H]1C[C@@H](Nc2ncncc2C(=O)c2cc3c(s2)CCC32NCCc3cc(F)c(Cl)cc32)C[C@@H]1O (stereo partly drawn) [Compound 69]
stdout: ≥ 7.30

stdin: Quick one: give measured pIC50 for NS(=O)(=O)OC[C@H]1C[C@@H](Nc2ncncc2C(=O)c2cc3c(s2)CCC[C@]32NC3(CC3)Cc3ccc(Cl)cc32)C[C@@H]1O [Compound 220]
stdout: 6.70 to 7.30

stdin: Specify pIC50 for NS(=O)(=O)OC[C@H]1C[C@@H](Nc2ncncc2C(=O)c2cc3c(s2)CCCC32NCC(=O)c3ccc(Cl)cc32)C[C@@H]1O (stereo partly drawn) [Compound 41] and stop.
stdout: 6.70 to 7.30

stdin: Check the records and state pIC50 for CCN1Cc2sc(C(=O)c3cncnc3N[C@@H]3C[C@H](COS(N)(=O)=O)[C@@H](O)C3)cc2C2(C1)OCCc1ccc(Cl)cc12 (stereo partly drawn) [Compound 265]
stdout: ≥ 7.30

stdin: Report pIC50 for NS(=O)(=O)OC[C@H]1C[C@@H](Nc2ncncc2C(=O)c2nc3c(s2)COC[C@@]32NCCc3ccc(Cl)cc32)C[C@@H]1O [Compound 125]
stdout: < 6.70

* * *

- Target or system: SAE (Homo sapiens (Human), UniProt Q9UBT2)
- Assay summary: In vitro inhibitory activity assay against SAE (SUMO-2/3 immunofluorescence in HCT116 cells)
- Assay type: cell-based
- Setup conditions: 6 h incubation, class symbols, read-out: SUMO IF IC50
Reported endpoint: IC50

NS(=O)(=O)OC[C@H]1C[C@@H](Nc2ncncc2C(=O)c2cc3c(s2)COCC32NCCc3ccccc32)C[C@@H]1O (stereo partly drawn) = > 0.2 µM
NS(=O)(=O)OC[C@H]1C[C@@H](Nc2ncncc2C(=O)c2cc3c(s2)CC[C@]32NCCc3ccc(C(F)(F)F)cc32)C[C@@H]1O = 0.05 to 0.2 µM
CC(C)N1Cc2sc(C(=O)c3cncnc3N[C@@H]3C[C@H](COS(N)(=O)=O)[C@@H](O)C3)cc2C2(C1)OCCc1ccc(F)cc12 (stereo partly drawn) = 0.05 to 0.2 µM
NS(=O)(=O)OC[C@H]1C[C@@H](Nc2ncncc2C(=O)c2cc3c(s2)C=C[C@]32OCCc3ccc(Cl)cc32)C[C@@H]1O = ≤ 0.05 µM
NS(=O)(=O)OC[C@H]1C[C@@H](Nc2ncncc2C(=O)c2cc3c(s2)COC[C@@]32NCCc3cc(Cl)c(Cl)cc32)C[C@@H]1O = > 0.2 µM

// moving on: another record for IC50
stdin: Specify reported IC50 for the compound shown: NS(=O)(=O)OC[C@H]1C[C@@H](Nc2ncncc2C(=O)c2nc3c(s2)CSC[C@@]32NCCc3ccc(Cl)cc32)C[C@@H]1O
stdout: > 0.2 µM

* * *

- Target or system: SAE (Homo sapiens (Human), UniProt Q9UBT2)
- Assay summary: In vitro inhibitory activity assay against SAE (SUMO-2/3 immunofluorescence in HCT116 cells)
- Assay type: cell-based
- Setup conditions: 6 h incubation, class symbols, read-out: SUMO IF IC50
Reported endpoint: IC50

Solved entries:
NS(=O)(=O)OC[C@H]1C[C@@H](Nc2ncncc2C(=O)c2cc3c(s2)CCCC32OCCc3ccc(F)cc32)C[C@@H]1O (stereo partly drawn) = 50 to 200 nM
[2H]C1([2H])CNC2(CCCc3sc(C(=O)c4cncnc4N[C@@H]4C[C@H](COS(N)(=O)=O)[C@@H](O)C4)cc32)c2cc(Cl)ccc21 (stereo partly drawn) = ≤ 50 nM

stdin: Specify IC50 for NS(=O)(=O)OC[C@H]1C[C@@H](Nc2ncncc2C(=O)c2cc3c(s2)CN(C2CC2)C[C@@]32OCCc3ccc(F)cc32)C[C@@H]1O and stop.
stdout: > 200 nM

* * *

- Assay summary: In vivo pharmacokinetic experiment, intravenous administration
- Setup conditions: mouse, 2 mg/kg, CD-1 female mice, 2 mpk, plasma
- Protocol: CD-1 female mice aged 6 to 8 weeks were intravenously administered at a dose of 2 mg/kg. The mice were fasted for at least 12 h before the administration and given food after the administration, and they were given ad libitum access to water during the experiment. […] The plasma concentration was processed using a non-compartmental model of Phoenix WinNonlin™ version 8.3 (Certara) pharmacokinetic software, and the pharmacokinetic parameters were calculated using a linear-log trapezoidal method.
The following molecules are shown together with reported C0 values.
Number in ng/mL, nothing else.

Record excerpt, results attached:
NS(=O)(=O)OC[C@H]1C[C@@H](Nc2ncncc2C(=O)c2cc3c(s2)CCC[C@]32NCCc3ccc(F)cc32)C[C@@H]1O [Compound 9] = 730
NS(=O)(=O)OC[C@H]1C[C@@H](Nc2ncncc2C(=O)c2cc3c(s2)COC[C@]32NCCc3ccc(Cl)cc32)C[C@@H]1O [Compound 21] = 1610
NS(=O)(=O)OC[C@H]1C[C@@H](Nc2ncncc2C(=O)c2cc3c(s2)CC[C@]32NCCc3ccc(Cl)cc32)C[C@@H]1O [Compound 48] = 839

stdin: Return C0 (reported value) for this molecule: NS(=O)(=O)OC[C@H]1C[C@@H](Nc2ncncc2C(=O)c2cc3c(s2)CCC[C@]32NCCc3ccc(Cl)cc32)C[C@@H]1O [Compound 6]
stdout: 1080

* * *

- Assay summary: In vivo pharmacokinetic experiment, intravenous administration
- Setup conditions: mouse, 2 mg/kg, CD-1 female mice, 2 mpk, plasma, read-out: AUClast
Reported endpoint: AUC(0-t) (ng·h/mL)
Note: unit ng·h/mL is implicit; provide only the numeric part.

Take a look at these entries with their results.
NS(=O)(=O)OC[C@H]1C[C@@H](Nc2ncncc2C(=O)c2cc3c(s2)CCC[C@]32NCCc3ccc(Cl)cc32)C[C@@H]1O [Compound 6] = 881
NS(=O)(=O)OC[C@H]1C[C@@H](Nc2ncncc2C(=O)c2cc3c(s2)COC[C@]32NCCc3ccc(Cl)cc32)C[C@@H]1O [Compound 21] = 1480
NS(=O)(=O)OC[C@H]1C[C@@H](Nc2ncncc2C(=O)c2cc3c(s2)CCC[C@]32NCCc3ccc(F)cc32)C[C@@H]1O [Compound 9] = 580

Consider now this further compound.
stdin: Tell me its AUC(0-t) given NS(=O)(=O)OC[C@H]1C[C@@H](Nc2ncncc2C(=O)c2cc3c(s2)CC[C@]32NCCc3ccc(Cl)cc32)C[C@@H]1O [Compound 48] as the entry.
stdout: 749
